# tgt: human ETA receptors (Homo sapiens, UniProt P25101)
# Construct: endogenous in cells; host or cells: TE 671 cells (ATCC HTB 139), membrane preparation
# Sequence (P25101 21-427): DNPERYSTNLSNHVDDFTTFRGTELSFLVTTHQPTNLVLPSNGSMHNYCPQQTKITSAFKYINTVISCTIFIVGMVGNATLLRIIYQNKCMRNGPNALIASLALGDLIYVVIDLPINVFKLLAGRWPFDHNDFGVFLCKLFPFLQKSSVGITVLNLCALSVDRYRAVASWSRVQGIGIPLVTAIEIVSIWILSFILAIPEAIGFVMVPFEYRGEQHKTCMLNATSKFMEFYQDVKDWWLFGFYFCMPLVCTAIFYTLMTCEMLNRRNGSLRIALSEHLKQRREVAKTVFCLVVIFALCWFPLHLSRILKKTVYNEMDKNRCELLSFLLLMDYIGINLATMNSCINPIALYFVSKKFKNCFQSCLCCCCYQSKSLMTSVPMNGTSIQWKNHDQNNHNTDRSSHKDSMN
# experiment notes: Endothelin binding inhibition, Binding Test #1: competition with 125I-ET-1 for ETA receptors on TE 671 cell membranes
# study conditions: incubation at 24° C. (values marked †)
measure name: IC50 (µM)

Please review the following examples before continuing.
compound: Cc1cc(C)c(CCc2sccc2S(=O)(=O)Nc2onc(C)c2Br)c(C)c1
IC50 [µM]: 0.0417
--
compound: CC(=O)OCc1c(C)cc(C)c(NC(=O)c2sccc2S(=O)(=O)Nc2onc(C)c2Cl)c1C
IC50 [µM]: 0.00086
--
compound: Cc1ccc(C)c(CC(=O)c2sccc2S(=O)(=O)Nc2onc(C)c2Cl)c1
IC50 [µM]: 0.007

a: Cc1cc(C)c(NC(=O)c2sccc2S(=O)(=O)Nc2onc(C)c2Cl)c(C)c1C#N
b: Cc1ccc(-c2ccc(S(=O)(=O)Nc3noc(C)c3Br)s2)cc1
stdin: Returns: the argument ( a or b ) having the larger IC50. Choose, then provide that item's label.
stdout: b
(b: 15.8 µM, a: 0.00152 µM)

1: Cc1noc(NS(=O)(=O)c2ccsc2C(=O)Nc2cc3c(cc2CCO)OCO3)c1Cl
2: Cc1noc(NS(=O)(=O)c2ccsc2C(=O)C(C#N)c2ccc3c(c2)OCO3)c1Cl (stereo not shown)
3: COc1ccc(Cc2sc3ccccc3c2S(=O)(=O)Nc2onc(C)c2Br)cc1OC
4: Cc1ccc(OC(=O)c2sccc2S(=O)(=O)Nc2onc(C)c2Cl)cc1
stdin: Rank by IC50 (largest to smallest). Submit the labels in the order that the ranking request calls for.
stdout: 4, 2, 3, 1
(4: 3.2 µM, 2: 2.1 µM, 3: 0.021 µM, 1: 0.0056 µM)
